- TARGET: human placental NOS (Homo sapiens, UniProt P29474)
- Construct: Purification of NOS from human placenta; from tissue; host or cells: fresh human placenta
- Sequence (P29474 2-1203): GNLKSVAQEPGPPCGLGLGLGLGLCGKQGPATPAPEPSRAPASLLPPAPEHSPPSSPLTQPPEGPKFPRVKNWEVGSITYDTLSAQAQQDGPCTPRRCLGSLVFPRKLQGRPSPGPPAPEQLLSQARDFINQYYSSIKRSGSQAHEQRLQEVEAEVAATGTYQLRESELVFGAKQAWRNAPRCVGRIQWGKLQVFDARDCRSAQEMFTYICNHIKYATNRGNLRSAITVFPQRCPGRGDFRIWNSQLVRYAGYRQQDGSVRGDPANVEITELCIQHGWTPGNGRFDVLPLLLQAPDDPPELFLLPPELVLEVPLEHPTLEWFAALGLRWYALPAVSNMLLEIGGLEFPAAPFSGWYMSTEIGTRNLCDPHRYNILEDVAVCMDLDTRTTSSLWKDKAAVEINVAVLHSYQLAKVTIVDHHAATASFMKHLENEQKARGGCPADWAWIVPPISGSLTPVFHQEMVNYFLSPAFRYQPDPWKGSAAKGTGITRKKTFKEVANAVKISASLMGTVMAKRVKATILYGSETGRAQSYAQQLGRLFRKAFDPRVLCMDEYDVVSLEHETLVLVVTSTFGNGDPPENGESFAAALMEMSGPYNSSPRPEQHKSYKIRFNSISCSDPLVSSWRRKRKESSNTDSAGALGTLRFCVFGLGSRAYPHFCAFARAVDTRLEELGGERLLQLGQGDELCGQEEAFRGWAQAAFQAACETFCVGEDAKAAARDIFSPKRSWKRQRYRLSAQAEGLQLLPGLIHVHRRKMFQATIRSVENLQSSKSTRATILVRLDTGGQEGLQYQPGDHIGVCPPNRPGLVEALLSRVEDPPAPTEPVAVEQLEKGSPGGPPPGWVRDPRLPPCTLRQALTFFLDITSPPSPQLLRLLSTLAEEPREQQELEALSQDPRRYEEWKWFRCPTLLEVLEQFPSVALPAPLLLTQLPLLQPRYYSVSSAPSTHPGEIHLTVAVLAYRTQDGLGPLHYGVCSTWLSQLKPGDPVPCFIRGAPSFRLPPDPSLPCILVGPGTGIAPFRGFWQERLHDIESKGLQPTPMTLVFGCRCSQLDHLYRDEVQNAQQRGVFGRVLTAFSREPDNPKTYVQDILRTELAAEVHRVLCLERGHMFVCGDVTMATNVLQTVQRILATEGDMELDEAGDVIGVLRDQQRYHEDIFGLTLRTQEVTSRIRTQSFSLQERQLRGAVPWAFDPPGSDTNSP
- TEST NAME: Assay for human placental NOS (citrulline formation)
- Type: biochemical
- TEST PARAMETERS: from percent inhibition at three or more concentrations at a single time point, assuming competitive inhibition with respect to arginine; read-out: Human Placental Ki/μM (footnote b)

>  <COMPOUND>
CSC(=N)NCCC[C@H](N)C(=O)O [Example 8]

>  <Ki (µM)>
0.07

$$$$

----------
- TARGET: inducible human NOS (Homo sapiens, UniProt P35228)
- Construct: Purification of NOS cytokine-induced human colorectal adenocarcinoma DLD-1 cells; endogenous in cells; host or cells: DLD-1 (ATCC No. CCL 221), induced with IFN-gamma, IL-6, TNF and IL-1beta
- Sequence (P35228 whole entry): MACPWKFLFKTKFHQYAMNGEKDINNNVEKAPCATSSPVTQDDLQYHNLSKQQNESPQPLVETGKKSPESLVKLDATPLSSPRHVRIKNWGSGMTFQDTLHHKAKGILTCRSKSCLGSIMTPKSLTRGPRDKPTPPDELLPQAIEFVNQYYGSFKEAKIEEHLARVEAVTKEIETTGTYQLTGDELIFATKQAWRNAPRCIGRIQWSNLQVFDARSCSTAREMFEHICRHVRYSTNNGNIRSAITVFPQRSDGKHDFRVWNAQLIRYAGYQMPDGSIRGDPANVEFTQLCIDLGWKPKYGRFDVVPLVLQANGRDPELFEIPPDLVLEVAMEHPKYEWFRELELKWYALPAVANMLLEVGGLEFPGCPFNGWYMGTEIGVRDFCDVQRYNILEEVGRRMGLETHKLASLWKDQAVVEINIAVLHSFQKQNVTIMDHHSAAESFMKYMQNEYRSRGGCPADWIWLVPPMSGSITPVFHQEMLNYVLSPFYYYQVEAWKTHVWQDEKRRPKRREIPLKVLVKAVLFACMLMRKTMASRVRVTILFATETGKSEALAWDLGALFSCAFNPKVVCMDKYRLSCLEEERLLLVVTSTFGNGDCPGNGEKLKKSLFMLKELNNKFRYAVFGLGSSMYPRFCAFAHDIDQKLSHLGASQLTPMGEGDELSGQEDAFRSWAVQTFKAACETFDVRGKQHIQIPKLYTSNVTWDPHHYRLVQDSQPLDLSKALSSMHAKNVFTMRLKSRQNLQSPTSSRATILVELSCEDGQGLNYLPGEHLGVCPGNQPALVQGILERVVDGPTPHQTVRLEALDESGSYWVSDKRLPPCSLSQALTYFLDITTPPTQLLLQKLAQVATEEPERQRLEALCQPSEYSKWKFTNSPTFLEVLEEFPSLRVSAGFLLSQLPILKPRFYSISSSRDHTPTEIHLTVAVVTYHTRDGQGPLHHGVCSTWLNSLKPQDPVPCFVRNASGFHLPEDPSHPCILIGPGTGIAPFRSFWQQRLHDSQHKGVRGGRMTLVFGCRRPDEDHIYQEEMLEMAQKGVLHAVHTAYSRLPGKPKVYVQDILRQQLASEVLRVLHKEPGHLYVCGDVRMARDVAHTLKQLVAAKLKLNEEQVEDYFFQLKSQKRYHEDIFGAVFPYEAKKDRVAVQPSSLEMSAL
- TEST NAME: Assay for inducible human NOS (citrulline formation), enzyme from cytokine-induced DLD-1 cells
- Type: biochemical
- TEST PARAMETERS: from steady state inhibited rate / control rate, assuming competitive inhibition with respect to arginine; read-out: Human Inducible Ki/μM (footnote a)

>  <CPD SMILES>
CSC(=N)NCCC[C@H](N)C(=O)O

>  <Ki, µM>
0.034

$$$$

src = patent US20010034342A1
